# Tested on: YAP/TAZ-TEAD transcription
# Experimental Protocol: Reporter gene assay for measuring the inhibition of YAP/TAZ-TEAD transcription (TEAD-responsive element luciferase reporter in Hek293T cells)
# Format: cell-based
# Experimental Conditions: Hek293T cells transiently transfected with TEAD-responsive element luciferase reporter, 24 hours incubation
Value Type: EC50

Worked cases, EC50 given:
• C=CC(=O)NCC1CN(c2ccc(C(F)(F)F)c(F)c2)c2ccnn2C1 (single isomer, unassigned) [Cpd. No. 015-En1] = < 1000 nM
• C=CC(=O)NCC1CN(S(=O)(=O)c2ccc(C(F)(F)F)cc2)c2ccnn2C1 (stereo not drawn) [Cpd. No. 045-En2] = > 20000 nM

Q: I'd like to know its EC50. The compound in question is C=CC(=O)N1CCC2(C1)CN(c1ccc(C(F)(F)F)cc1)c1ccnn1C2 (single isomer, unassigned) [Cpd. No. 088-En2]
Result: < 1000 nM

Q: Please look up its EC50: C=CC(=O)NCC1CN(c2ccc(C(F)(F)F)cc2)c2cc(C)nn2C1 (single isomer, unassigned) [Cpd. No. 029-En2]
Result: < 1000 nM

Q: Can you look up the measured EC50 of C=CC(=O)NC1CN(c2ccc(C(F)(F)F)cc2)c2ccnn2C1 (single isomer, unassigned) [Cpd. No. 061-En2] for me?
Result: < 1000 nM

Q: May I ask what EC50 has been recorded for C=CC(=O)NCC1CN(c2ccc(C(F)(F)F)cc2)c2cc(C(F)(F)F)nn2C1 (single isomer, unassigned) [Cpd. No. 034-En2] ?
Result: < 1000 nM

Q: Need EC50, item C=CC(=O)NCC1CN(c2ccc(OC(F)(F)F)cc2F)c2ccnn2C1 (single isomer, unassigned)
Result: < 1000 nM

Q: Endpoint output: EC50 of FC(F)(F)c1ccc(N2CC(C3CC(Br)=NO3)Cn3nccc32)cc1 (single isomer, unassigned) . Value?
Result: < 1000 nM

Q: Name the reported EC50 value associated with the compound C=CC(=O)NCC1CN(c2ccc(C(F)(F)F)c(F)c2)c2ccnn2C1 (single isomer, unassigned) [Cpd. No. 015-En2]
Result: < 1000 nM

Q: // query EC50 value for entry C=CC(=O)NC1CN(c2ccc(C(F)(F)F)cc2)c2ccnn2C1 (single isomer, unassigned) [Cpd. No. 061-En1]
Result: < 1000 nM

Q: Name the reported EC50 value associated with the compound C=CC(=O)NCC1CN(c2ccc(C(F)F)nc2)c2ccnn2C1 (single isomer, unassigned) [Cpd. No. 010-En2]
Result: < 1000 nM

Q: Endpoint output: EC50 of C=CC(=O)NCC1CN(c2ccc(C(F)(F)F)cc2F)c2ccnn2C1 (single isomer, unassigned) [Cpd. No. 016-En1] . Value?
Result: < 1000 nM

Q: Entry C=CC(=O)NCC1CN(c2ccc3scnc3c2)c2ccnn2C1 (single isomer, unassigned) : reported EC50 = ?
Result: 1000 to 20000 nM

Q: // lookup EC50 for C=CC(=O)NCC1CN(c2cccc(F)c2)c2ccnn2C1 (single isomer, unassigned) [Cpd. No. 004-En1]
Result: 1000 to 20000 nM

Hey, just so you know, these numbers are from patent US20230279016A1.
